tested on: MCF7 breast; assay: NCI-60 one-dose screen, 48 h (100 = growth as untreated, 0 = no growth, -100 = all killed); settings: 10 µM unless noted
Compounds without any hit were thinned out: in the full panel of roughly 83,000, 20% have a hit.
Provide the reported growth of each item.
Provide only the numeric value, understood in %.

Query :: Consider the molecule "CC(C)(O)c1cncc(-c2ccc3ncnc(NCc4ccccc4)c3c2)c1" and give its measured growth.
Result :: 58.5

Query :: Follow-up item: "CS(=O)(=O)Nc1cc(-c2ccc3ncc(C#N)c(NCc4ccccc4F)c3c2)cnc1Cl"
Result :: 4.76

Query :: Follow-up item: "Cc1cccc(/C=C/C(=O)Nc2ncc(Cc3cccc(C)c3)s2)c1"
Result :: 15.1

Query :: Follow-up item: "C=C(C=O)[C@@H]1CC[C@]2(C)[C@H](C(=O)C=C3[C@H]4C[C@](C)(C(=O)OC)CC[C@]4(C)CC[C@]32C)[C@@]1(C)CCC#N"
Result :: 2.5

Query :: Follow-up item: "COc1ccc(Cn2cc3c(c2-c2cc(OC)c(OC)c(OC)c2)CCc2c(CN4CCCC4)noc2-3)cc1"
Result :: 15.5

Query :: Follow-up item: "O=c1[nH]c(Sc2sc3ccc(Cl)cc3c2CBr)nc(=S)[nH]1"
Result :: 15.2

Query :: Follow-up item: "Cn1ccnc1C(=O)/C=C/c1ccc(CNC(=O)c2c(F)c(F)c(F)c(F)c2F)cc1"
Result :: 19.4

Query :: Follow-up item: "O=C1[C@@H]2Cc3c([nH]c4ccccc34)[C@H](c3c(Cl)cccc3Cl)N2C(=O)CN1C1CCN(CC2CCCCC2)CC1"
Result :: 18.4

Query :: Follow-up item: "CC1=NC2=NC(=O)/C(=C3/N=C(C)C=C(c4ccccc4)N3N)NN2C(c2ccccc2)=C1"
Result :: 93.6

Query :: Follow-up item: "CC/C(=C/c1c(O)cccc1OC)c1ccc2c(OC)cccc2[o+]1"
Result :: 86.4

Query :: Follow-up item: "C#CCOC(=O)[C@@H]1CCCN1CC#C"
Result :: 74.9

Query :: Follow-up item: "Cc1ccc2c(c1)C(=O)/C(=C/c1cccc(F)c1)S2"
Result :: 73.7

Query :: Follow-up item: "COc1ccc(-n2c(SCc3n[nH]c(=S)o3)nc3ccc(Cl)cc3c2=O)cc1"
Result :: 90.6

Query :: Follow-up item: "C=CCn1c(-c2nc3ccc(C(=C(C#N)C#N)c4ccccc4)cc3[nH]2)cc2cc(Br)ccc21"
Result :: 0.939

Query :: Follow-up item: "CN1CCC(n2cc(Nc3ncc4c(=O)n(-c5c(Cl)cccc5Cl)cc(Br)c4n3)cn2)CC1"
Result :: 18.7

Query :: Follow-up item: O=C(NNc1nc2cc(F)ccc2n2c(CN3CC4CNCC4C3)ccc12)c1cnccn1 (stereo unspecified)
Result :: 12.2

Query :: Follow-up item: "N=c1c2cc(-c3ccccc3)oc2ncn1/N=C/c1ccc(Cl)cc1"
Result :: 70.8

Query :: Follow-up item: "C=C(C)[C@@H]1CC[C@]2(C(=O)NCCCCCN(CCC#N)CCC#N)CC[C@]3(C)[C@H](CC[C@@H]4[C@@]5(C)CCC(=O)C(C)(C)[C@@H]5CC[C@]43C)[C@@H]12"
Result :: 86.2

Query :: Follow-up item: O=C1Nc2ccccc2/C1=C/c1ccc(COCC2CO2)n1-c1ccc(O)cc1 (stereo unspecified)
Result :: 84.6

Query :: Follow-up item: CCCn1cnc2c(c1=N)C(c1ccc(F)cc1)c1sc3c(CC)cccc3c1O2 (stereo unspecified)
Result :: 18.1

Query :: Follow-up item: "CCCCCc1ccc(S(=O)(=O)Nc2cccc(-c3csc(NC(=O)CCCCCN4CCN(CCO)CC4)n3)c2)cc1"
Result :: 19.8

Values were extracted from PubChem BioAssay (NCI).
